biological target: D(1A) dopamine receptor (Homo sapiens, UniProt P21728); assay: Positive allosteric modulation of human D1R expressed in HEK293 cells assessed as increase in dopamine-induced cAMP accumulation after 60 mins by HTRF assay; type: functional, cell-based
Sequence (P21728 whole entry): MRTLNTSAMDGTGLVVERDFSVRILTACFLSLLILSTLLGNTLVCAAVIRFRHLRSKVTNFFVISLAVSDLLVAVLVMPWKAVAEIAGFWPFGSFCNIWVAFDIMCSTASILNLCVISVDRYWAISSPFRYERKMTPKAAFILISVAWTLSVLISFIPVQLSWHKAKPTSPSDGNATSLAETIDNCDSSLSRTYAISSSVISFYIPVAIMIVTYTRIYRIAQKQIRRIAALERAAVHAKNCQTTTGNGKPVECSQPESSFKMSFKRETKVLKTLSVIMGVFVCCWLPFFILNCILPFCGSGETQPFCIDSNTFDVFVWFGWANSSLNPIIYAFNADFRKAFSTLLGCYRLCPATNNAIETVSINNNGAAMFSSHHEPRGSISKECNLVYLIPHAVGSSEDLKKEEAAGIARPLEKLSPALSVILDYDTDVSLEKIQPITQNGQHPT
Reported Endpoint: pEC50
// pEC50 here means minus log10 of the molar concentration (mol/L)

C[C@H]1c2cccc(CC(C)(C)O)c2C[C@H](CO)N1C(=O)Cc1c(Cl)cccc1Cl    8.44

Now for another entry.
Provide D(1A) dopamine receptor (Homo sapiens, UniProt P21728) pEC50 reading for O=C(O)c1ccc(O)cc1 . 8.95

----------
assay: Ratio of unbound brain to plasma concentration in mouse; type: ADME; details: brain and plasma (unbound), read-out: K(p,uu,brain)
Reported Endpoint: Kp uu
Reply briefly: the number, and no unit.

Tell us which Kp uu value is on record for C[C@H]1c2cccc(CCC(C)(C)O)c2C[C@H](CO)N1C(=O)Cc1c(Cl)cccc1Cl 0.3

Dear colleague, please send me the reported Kp uu for C[C@H]1c2cccc(C(C)(C)O)c2C[C@H](CO)N1C(=O)Cc1c(Cl)cccc1Cl when you can. 1

Answer with reported Kp uu of C[C@H]1c2cccc(CC(C)(C)O)c2C[C@H](CO)N1C(=O)Cc1c(Cl)cccc1Cl 0.7
